Data credit: BigSolDB 2.1

settings: in MIBK, 328.15 K
ASSAY_ENDPOINT: solubility (mole fraction)
Respond with the number and no other words.

Input line: Could you share which solubility (mole fraction) value was measured for NC(N)=C([N+](=O)[O-])[N+](=O)[O-] ?
Output line: 0.00553

----------
conditions: in cyclopentanone, 303.15 K
ASSAY_ENDPOINT: solubility (mole fraction)
Respond with the number and no other words.

Input line: Could you share which solubility (mole fraction) value was measured for NC(N)=C([N+](=O)[O-])[N+](=O)[O-] ?
Output line: 0.0083

----------
conditions: in DMSO, 318.15 K
ASSAY_ENDPOINT: solubility (mole fraction)
Respond with the number and no other words.

Input line: Could you share which solubility (mole fraction) value was measured for NC(N)=C([N+](=O)[O-])[N+](=O)[O-] ?
Output line: 0.193

----------
details: in 2-butanone, 308.15 K
ASSAY_ENDPOINT: solubility (mole fraction)
Respond with the number and no other words.

Input line: Could you share which solubility (mole fraction) value was measured for NC(N)=C([N+](=O)[O-])[N+](=O)[O-] ?
Output line: 0.00659

----------
conditions: in DMSO, 323.15 K
ASSAY_ENDPOINT: solubility (mole fraction)
Respond with the number and no other words.

Input line: Could you share which solubility (mole fraction) value was measured for NC(N)=C([N+](=O)[O-])[N+](=O)[O-] ?
Output line: 0.197

----------
details: in MIBK, 318.15 K
ASSAY_ENDPOINT: solubility (mole fraction)

Input line: Could you share which solubility (mole fraction) value was measured for NC(N)=C([N+](=O)[O-])[N+](=O)[O-] ?
Output line: 0.00467

----------
settings: in cyclopentanone, 328.15 K
ASSAY_ENDPOINT: solubility (mole fraction)
Respond with the number and no other words.

Input line: Could you share which solubility (mole fraction) value was measured for NC(N)=C([N+](=O)[O-])[N+](=O)[O-] ?
Output line: 0.0119

----------
conditions: in cyclopentanone, 318.15 K
ASSAY_ENDPOINT: solubility (mole fraction)
Respond with the number and no other words.

Input line: Could you share which solubility (mole fraction) value was measured for NC(N)=C([N+](=O)[O-])[N+](=O)[O-] ?
Output line: 0.0103

----------
details: in DMSO, 328.15 K
ASSAY_ENDPOINT: solubility (mole fraction)

Input line: Could you share which solubility (mole fraction) value was measured for NC(N)=C([N+](=O)[O-])[N+](=O)[O-] ?
Output line: 0.201

----------
conditions: in 2-butanone, 313.15 K
ASSAY_ENDPOINT: solubility (mole fraction)
Respond with the number and no other words.

Input line: Could you share which solubility (mole fraction) value was measured for NC(N)=C([N+](=O)[O-])[N+](=O)[O-] ?
Output line: 0.00714

----------
settings: in 2-butanone, 333.15 K
ASSAY_ENDPOINT: solubility (mole fraction)
Respond with the number and no other words.

Input line: Could you share which solubility (mole fraction) value was measured for NC(N)=C([N+](=O)[O-])[N+](=O)[O-] ?
Output line: 0.00957

----------
details: in MIBK, 308.15 K
ASSAY_ENDPOINT: solubility (mole fraction)

Input line: Could you share which solubility (mole fraction) value was measured for NC(N)=C([N+](=O)[O-])[N+](=O)[O-] ?
Output line: 0.00402

----------
settings: in 2-butanone, 328.15 K
ASSAY_ENDPOINT: solubility (mole fraction)
Respond with the number and no other words.

Input line: Could you share which solubility (mole fraction) value was measured for NC(N)=C([N+](=O)[O-])[N+](=O)[O-] ?
Output line: 0.00899
